Target chain: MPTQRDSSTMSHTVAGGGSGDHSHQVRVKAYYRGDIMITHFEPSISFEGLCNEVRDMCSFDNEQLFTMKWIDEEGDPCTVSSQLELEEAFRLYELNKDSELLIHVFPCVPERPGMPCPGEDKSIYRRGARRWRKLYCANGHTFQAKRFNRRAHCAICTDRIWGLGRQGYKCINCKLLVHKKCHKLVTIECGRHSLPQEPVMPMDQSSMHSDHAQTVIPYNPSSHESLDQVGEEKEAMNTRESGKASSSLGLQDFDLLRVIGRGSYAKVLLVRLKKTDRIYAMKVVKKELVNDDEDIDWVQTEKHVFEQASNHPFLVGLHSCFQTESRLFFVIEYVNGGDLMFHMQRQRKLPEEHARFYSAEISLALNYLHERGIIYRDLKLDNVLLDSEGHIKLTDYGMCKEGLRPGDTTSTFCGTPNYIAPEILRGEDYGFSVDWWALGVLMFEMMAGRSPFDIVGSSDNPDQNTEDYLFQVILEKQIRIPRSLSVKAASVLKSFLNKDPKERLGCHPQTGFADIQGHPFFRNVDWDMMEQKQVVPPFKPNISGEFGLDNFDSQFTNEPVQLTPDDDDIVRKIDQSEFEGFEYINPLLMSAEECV
endpoint_label: IC50 (µM)
Report only the number, with the unit µM understood.

Any idea what its IC50 is? The compound is "Cn1sc(=O)n(Cc2ccccc2)c1=O"
5.5

###

tgt: PRKCB1 (PKC beta I) (Homo sapiens)
Sequence (P05771 whole entry): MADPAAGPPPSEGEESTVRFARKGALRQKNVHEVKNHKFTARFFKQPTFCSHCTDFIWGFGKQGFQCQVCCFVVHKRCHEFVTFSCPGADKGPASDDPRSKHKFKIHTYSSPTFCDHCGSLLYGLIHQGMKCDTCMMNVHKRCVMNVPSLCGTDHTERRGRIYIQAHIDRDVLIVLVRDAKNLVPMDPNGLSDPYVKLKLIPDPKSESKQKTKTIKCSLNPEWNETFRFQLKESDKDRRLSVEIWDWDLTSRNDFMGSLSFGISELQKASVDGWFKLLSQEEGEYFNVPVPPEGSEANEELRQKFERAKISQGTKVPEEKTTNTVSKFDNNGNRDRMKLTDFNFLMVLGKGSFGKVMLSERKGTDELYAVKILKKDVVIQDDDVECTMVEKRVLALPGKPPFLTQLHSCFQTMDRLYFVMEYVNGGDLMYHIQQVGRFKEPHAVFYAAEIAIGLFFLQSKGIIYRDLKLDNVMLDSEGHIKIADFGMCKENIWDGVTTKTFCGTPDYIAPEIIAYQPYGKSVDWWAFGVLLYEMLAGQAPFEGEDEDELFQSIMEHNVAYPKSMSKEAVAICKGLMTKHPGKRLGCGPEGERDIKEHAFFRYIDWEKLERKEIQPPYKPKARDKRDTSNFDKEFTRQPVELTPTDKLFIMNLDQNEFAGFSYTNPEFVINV
endpoint_label: IC50
Remember to follow the number with its unit.

Any idea what its IC50 is? The compound is "Cn1sc(=O)n(Cc2ccccc2)c1=O"
1.4 µM

###

Test system: All other tumor lines
experiment_summary: NCI-60 screen, other lines
Format: cell-based
study_conditions: Homo sapiens; NCI-60, non-hematologic lines; read-out: concentration up to which no growth inhibition was shown
endpoint_label: IC50

Any idea what its IC50 is? The compound is "Cn1sc(=O)n(Cc2ccccc2)c1=O"
> 100 µM

###

Format: cell-based
study_conditions: human, CD34+CD38− cells gated from healthy (normal) specimens
endpoint_label: viability at 24 h, 20 μM (%)
Report only the number, with the unit % understood.

Any idea what its viability at 24 h, 20 μM is? The compound is "Cn1sc(=O)n(Cc2ccccc2)c1=O"
80.2

###

Test system: primary AML specimens
experiment_summary: Viability of primary AML specimens, Annexin V/7-AAD flow cytometry
Assay type: cell-based, human
study_conditions: primary AML specimens
Protocol: The cells were isolated and processed as described. […] All drug treatments were performed in triplicate. […] Total viable cell numbers were determined using a flow cytometric apoptosis assay as described. Briefly, after 18 h of treatment, specimens were labeled with anti-CD34-PE (Becton Dickinson, San Jose, Calif.) for 20 minutes. […] The total number of events collected was 100,000. […]
endpoint_label: Cytotoxic AML

[[record]]
molecule = "CCOc1ccc(C=C2SC(=O)N(CCN)C2=O)cc1.Cl"
measured = "No"

[[record]]
molecule = "O=C1CSC(=O)N1"
measured = "No"

[[record]]
molecule = "COc1ccc(CNC(=O)Nc2ncc([N+](=O)[O-])s2)cc1"
measured = "No"

[[record]]
molecule = "O=c1sn(Cc2ccccc2)c(=S)n1Cc1ccccc1"
measured = "No"

[[record]]
molecule = "Cn1sc(=O)n(Cc2ccccc2)c1=O"
measured = "Yes"


Any idea what its Cytotoxic AML is? The molecule is "O=C(CCl)c1cc(Br)c(Br)s1"
Yes

Ok, now "Nc1cccc(-c2cc3c(Oc4cccc(O)c4)ncnc3[nH]2)c1"
No

Ok, now O=C1NC(=O)C(Cc2ccc(OCCN3COc4ccccc4C3=O)cc2)S1 (stereo not shown)
No

Ok, now Cc1c(C)c2c(c(C)c1O)CCC(C)(COc1ccc(CC3SC(=O)NC3=O)cc1)O2 (stereo not shown)
Yes

Ok, now "Cn1cc(C2=C(c3ccc(Cl)cc3Cl)C(=O)NC2=O)c2ccccc21"
No
